src = the RNAGym collection of RNA variant scans (doi:10.1093/molbev/msab373)

Measured reverse-splicing fitness accompanies every entry in the list below.
B1: Azoarcus group I ribozyme (parent)
chain: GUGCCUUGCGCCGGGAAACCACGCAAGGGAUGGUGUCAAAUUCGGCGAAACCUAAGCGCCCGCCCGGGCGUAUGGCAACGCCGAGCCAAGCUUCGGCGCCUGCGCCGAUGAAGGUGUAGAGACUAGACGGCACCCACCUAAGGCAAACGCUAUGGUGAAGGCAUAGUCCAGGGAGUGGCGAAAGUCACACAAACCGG

# Variants of: B1
# protocol: reverse-splicing fitness (ratio to wild type); higher = more active; in vitro selection; Mg2+ level not given
Answer with the value's number alone.

# count of solved cases: 3
| mutation-label | reverse-splicing fitness |
| --- | --- |
| C82G A120U A145C C150G | 0.0203 |
| C82A A111C A120C C169G U176A | 0.0174 |
| A111G A145U C150U C169A U176G | 0.00557 |

Q. Give the reported reverse-splicing fitness for this variant. A145C C150U C169U
A. 0.122

Q. Give the reported reverse-splicing fitness for this variant. C82A A120G A145U C150U C169U U176G
A. 0.00449

Q. Give the reported reverse-splicing fitness for this variant. C82U A111G A120C C169A U176C
A. 0.0132

Q. Give the reported reverse-splicing fitness for this variant. C82A A111G A145U C169G U176G
A. 0.00511

Q. Give the reported reverse-splicing fitness for this variant. C82U A120U C150U C169G U176C
A. 0.00284

Q. Give the reported reverse-splicing fitness for this variant. A111G A120U U176C
A. 0.445

Q. Give the reported reverse-splicing fitness for this variant. C82G A111C A120G A145U C150A C169G U176G
A. 0.00522
